Cited source: ChEMBL document CHEMBL4613280

# Assay Target: Serine/threonine-protein kinase Sgk1 (Homo sapiens, UniProt O00141, S422D)
# Sequence (O00141 whole entry S422D, the tested form may be a part): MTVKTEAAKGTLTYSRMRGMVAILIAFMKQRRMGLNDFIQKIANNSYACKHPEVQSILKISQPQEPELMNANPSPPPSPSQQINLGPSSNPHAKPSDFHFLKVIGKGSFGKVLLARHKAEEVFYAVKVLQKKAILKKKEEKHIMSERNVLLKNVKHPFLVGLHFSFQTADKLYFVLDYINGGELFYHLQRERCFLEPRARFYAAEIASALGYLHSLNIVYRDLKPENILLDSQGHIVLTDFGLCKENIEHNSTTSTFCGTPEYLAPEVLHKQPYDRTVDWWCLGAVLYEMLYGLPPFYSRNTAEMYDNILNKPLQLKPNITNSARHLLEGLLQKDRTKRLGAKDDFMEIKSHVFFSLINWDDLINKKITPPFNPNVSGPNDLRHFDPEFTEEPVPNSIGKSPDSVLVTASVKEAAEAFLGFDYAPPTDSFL
# Protocol: Inhibition of human N-terminal His6-tagged N-truncated human SGK1 harboring S422D mutant expressed in Sf21 cells using Sgktide-peptide as substrate in presence of [gamma-32P]ATP by scintillation counting method
pKi: −log10 of the molar value.

{"Compound Smiles": "OCCNc1nc(NCCc2ccccc2)c2cnn(/C=C/c3ccccc3)c2n1", "pKi": 6.22}
